Target: NAMPT (human, recombinant, C-terminally His-tagged) (Homo sapiens, UniProt P43490)
Sequence (P43490 whole entry): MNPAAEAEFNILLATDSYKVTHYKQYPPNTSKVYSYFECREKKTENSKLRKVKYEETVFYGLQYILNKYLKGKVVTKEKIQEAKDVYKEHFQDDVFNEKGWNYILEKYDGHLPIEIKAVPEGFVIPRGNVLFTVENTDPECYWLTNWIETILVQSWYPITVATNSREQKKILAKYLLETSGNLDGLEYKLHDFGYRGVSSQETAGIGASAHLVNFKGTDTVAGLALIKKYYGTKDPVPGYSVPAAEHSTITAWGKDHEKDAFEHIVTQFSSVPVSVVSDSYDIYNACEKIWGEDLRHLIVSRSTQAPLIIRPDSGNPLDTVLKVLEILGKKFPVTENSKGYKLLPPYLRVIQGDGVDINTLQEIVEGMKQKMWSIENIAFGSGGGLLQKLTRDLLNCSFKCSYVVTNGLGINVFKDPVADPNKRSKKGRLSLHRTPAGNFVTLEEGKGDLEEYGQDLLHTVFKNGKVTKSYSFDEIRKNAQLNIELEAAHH
Experiment: Time-Resolved Fluorescence Resonance Energy Transfer (TR-FRET) Binding Assay of NAMPT
Conditions: 6.8 nM NAMPT, 200 nM probe, equilibrated 3 hours, absence of substrates
Here, each record is paired with measured log10(IC50) data.
Reminder: these figures are log10 of reported IC50, in nM before transformation.

COMPOUND: O=C(Nc1ccc(OC2CN(C(=O)C3CCC(F)(F)CC3)C2)cc1)C1CN(c2ccnnc2)C1 [Example 202]
log10(IC50): 2.07

COMPOUND: O=C(Nc1ccc(OC2CCN(C(=O)c3ccccc3Cl)CC2)cc1)C1CN(c2ccnnc2)C1 [Example 279]
log10(IC50): 1.31

COMPOUND: CC[C@H](C)C(=O)N1CCC(Oc2ccc(C(=O)NC3CN(c4cccnc4)C3)cc2)CC1 [Example 23]
log10(IC50): 3.29

COMPOUND: CC(C)C(=O)N1CC(Oc2ccc(NC(=O)C3CN(c4ccnnc4)C3)cc2)C1 [Example 264]
log10(IC50): 1.72

COMPOUND: O=C(Nc1ccc(OC2CCN(C(=O)C3CCC(F)(F)CC3)CC2)cc1)C1CN(c2cccnn2)C1 [Example 216]
log10(IC50): 2.36

COMPOUND: O=C(Nc1ccc(OC2CCN(C(=O)c3ccc(Cl)cc3)CC2)cc1)C1CN(c2cccnn2)C1 [Example 245]
log10(IC50): 2.00

Missing value: log10(IC50), NAMPT (human, recombinant, C-terminally His-tagged) (Homo sapiens, UniProt P43490), entry CCCCC(=O)N1CCC(c2ccc(NC(=O)C3CN(c4cccnn4)C3)cc2)CC1 [Example 318] . Fill in? 1.58

Another: O=C(Nc1ccc(OC2CCN(C(=O)c3ccccc3F)CC2)cc1)C1CN(c2ccnnc2)C1 [Example 289] 1.62
